ASSAY_OVERVIEW: Pharmacokinetics in ICR mice after intravenous and intragastric administration
Format: in vivo
MEASUREMENT_CONTEXT: male, ICR, mouse, plasma, iv, 2 mg/kg, IV 2 mg/kg, ICR mice, Mean
Label scheme for AUC(0-inf): lower than 1000 ng·h/mL is NO, 1000 ng·h/mL and above is YES.

Example entries and their recorded answers appear below.
COc1ncc(-c2nc3c(n2C(C)C)[C@H](c2ccc(Cl)cc2)N(c2cc(Cl)cn(C)c2=O)C3=O)c(OC)n1 [HDM201, reference compound]
NO
COc1ccc(-c2nc3c(n2C(C)C)[C@@]2(C(=O)Nc4cc(Cl)ccc42)N(c2cc(Cl)ccc2C)C3=O)c(OC)c1 [Example S-9]
YES

Tell me whether AUC(0-inf) is at least 1000 ng·h/mL here: COc1cc(OC)c(-c2nc3c(n2C(C)C)[C@@]2(C(=O)Nc4cc(Cl)ccc42)N(c2cc(Cl)ccc2C)C3=O)cn1 [Example S-11] YES

Quick check: does COc1ncc(-c2nc3c(n2C(C)C)[C@@]2(C(=O)Nc4cc(Cl)ccc42)N(c2cc(Cl)ccc2C)C3=O)c(OC)n1 [Example S-2] have AUC(0-inf) greater than or equal to 1000 ng·h/mL? YES

Test whether the molecule COc1ncc(-c2nc3c(n2C(C)C)[C@@]2(C(=O)Nc4cc(Cl)ccc42)N(c2cccc(Cl)c2)C3=O)c(OC)n1 [Example S-1] records AUC(0-inf) of 1000 ng·h/mL or higher. NO

For this molecule, is measured AUC(0-inf) 1000 ng·h/mL or higher? COc1cc(N(C)C)ccc1-c1nc2c(n1C(C)C)[C@@]1(C(=O)Nc3cc(Cl)ccc31)N(c1cc(Cl)ccc1C)C2=O [Example S-23] YES
